Numbers sourced from patent US9938261B2.

Target: CSF1R (Homo sapiens)
Sequence (P07333 20-972): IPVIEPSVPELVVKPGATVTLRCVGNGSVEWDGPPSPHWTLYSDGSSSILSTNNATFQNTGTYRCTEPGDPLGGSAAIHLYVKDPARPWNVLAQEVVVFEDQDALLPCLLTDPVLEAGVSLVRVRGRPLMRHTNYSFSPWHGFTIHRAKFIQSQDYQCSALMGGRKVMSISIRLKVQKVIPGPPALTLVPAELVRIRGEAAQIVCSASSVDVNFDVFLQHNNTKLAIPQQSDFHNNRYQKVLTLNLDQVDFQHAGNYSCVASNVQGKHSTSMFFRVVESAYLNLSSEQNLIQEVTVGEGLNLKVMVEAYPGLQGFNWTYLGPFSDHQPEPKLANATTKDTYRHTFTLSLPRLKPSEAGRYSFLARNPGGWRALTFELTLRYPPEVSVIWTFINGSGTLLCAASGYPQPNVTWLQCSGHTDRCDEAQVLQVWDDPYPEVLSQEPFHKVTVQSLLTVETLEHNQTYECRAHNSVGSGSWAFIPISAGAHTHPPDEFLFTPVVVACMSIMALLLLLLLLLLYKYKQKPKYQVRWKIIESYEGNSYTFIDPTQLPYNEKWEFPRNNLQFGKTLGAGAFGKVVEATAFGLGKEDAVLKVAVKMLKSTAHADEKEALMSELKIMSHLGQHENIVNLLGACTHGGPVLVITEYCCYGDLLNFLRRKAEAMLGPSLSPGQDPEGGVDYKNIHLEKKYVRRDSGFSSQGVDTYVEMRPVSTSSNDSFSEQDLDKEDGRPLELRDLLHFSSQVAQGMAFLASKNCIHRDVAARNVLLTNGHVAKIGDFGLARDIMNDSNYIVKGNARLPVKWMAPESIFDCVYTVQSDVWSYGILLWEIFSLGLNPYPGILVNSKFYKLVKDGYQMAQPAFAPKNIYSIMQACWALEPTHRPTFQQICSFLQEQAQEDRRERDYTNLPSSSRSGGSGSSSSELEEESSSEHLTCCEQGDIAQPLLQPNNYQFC
Assay: Competition binding assay, CSF1R Kd
Parameters: made in house
parameter-measured: Kd

input: Enter recorded Kd with CSF1R (Homo sapiens) for "O[C@@H]1Cc2ccccc2[C@H]1Nc1nc2ccc(Cn3cnc4cc(F)cnc43)cc2s1" here.
output: ≤ 5 nM

input: Enter recorded Kd with CSF1R (Homo sapiens) for "COc1cc2c(cc1-c1cnn(C)c1)ncn2Cc1ccc2nc(N[C@@H]3CCCC[C@H]3O)sc2c1" here.
output: ≤ 5 nM

input: Enter recorded Kd with CSF1R (Homo sapiens) for "Cn1cc(-c2cn(Cc3ccc4nc(N[C@@H]5CCCC[C@H]5O)sc4c3)cn2)cn1" here.
output: 5 to 20 nM

input: Enter recorded Kd with CSF1R (Homo sapiens) for "C#Cc1cnc2c(c1)ncn2Cc1ccc2nc(N[C@@H]3CCCC[C@H]3O)sc2c1" here.
output: 5 to 20 nM
